Listing of entries alongside the reported pIC50.
tested on: P388; test: Cytotoxic activity against P-388 cell lines.; assay type: functional, cell-based; details: Mus musculus
pIC50: −log10 of the molar value.
Assay Readout: pIC50

chemical_smiles=COc1cc([C@@H]2Cc3[nH]c4ccc(Br)cc4c3[C@@H]3C(=O)N(c4ccccc4)C(=O)[C@H]23)cc(OC)c1OC system=P388 inequality_operator=< observed_value=4.75
chemical_smiles=COc1cc([C@@H]2Cc3[nH]c4ccc(C)cc4c3[C@@H]3C(=O)N(c4ccccc4)C(=O)[C@H]23)cc(OC)c1OC system=P388 inequality_operator== observed_value=4.70
chemical_smiles=COc1cc([C@@H]2Cc3[nH]c4ccccc4c3[C@@H]3C(=O)N(c4ccccc4)C(=O)[C@H]23)cc(OC)c1OC system=P388 inequality_operator== observed_value=6.30
